system: human FPR1 (Homo sapiens (Human), UniProt P21462)
Sequence (P21462 whole entry): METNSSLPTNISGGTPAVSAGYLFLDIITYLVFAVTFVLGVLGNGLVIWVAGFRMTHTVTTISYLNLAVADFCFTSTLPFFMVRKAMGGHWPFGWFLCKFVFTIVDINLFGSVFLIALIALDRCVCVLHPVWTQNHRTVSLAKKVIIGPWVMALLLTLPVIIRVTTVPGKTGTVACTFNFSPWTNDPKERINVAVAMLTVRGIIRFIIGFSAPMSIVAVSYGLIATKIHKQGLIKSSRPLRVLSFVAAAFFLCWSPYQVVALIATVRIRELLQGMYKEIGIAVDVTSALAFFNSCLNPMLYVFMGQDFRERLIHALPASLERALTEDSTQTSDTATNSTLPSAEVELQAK
testDetails: FPR1 cyclic adenosine monophosphate (cAMP) assay
experimentalSetup: CHO cells overexpressing human FPR1; forskolin 10 µM; inhibition of cAMP production; read-out: hFPR1 cAMP EC50
assayEndpoint: EC50 (nM)

(A) COc1cc(F)c([C@@H]2CN(c3c(C(F)(F)F)ccn(C)c3=O)C(=O)[C@H]2NC(=O)c2ccc(OC(F)F)cc2)c(F)c1 [Example 311]
(B) COc1cc(F)c([C@@H]2CN(c3c(C)ccn(C4COC4)c3=O)C(=O)[C@H]2NC(=O)c2ccc(OC(F)(F)F)cc2)c(F)c1 [Example 637]
(C) COc1cc(F)c([C@@H]2CN(c3c(C)ccn(C4CCNC4)c3=O)C(=O)[C@H]2NC(=O)c2ccc(OC(F)F)cc2)c(F)c1 (stereo partly drawn) [Example 612]
INPUT: In a descending ranking, list each entry from above by its EC50, from the largest value down to the smallest. Please, when replying, give the labels in the order that was requested.
OUTPUT: A, C, B
